Test system: HEK-293T
test: Antiproliferative activity against HEK293T cells at 10 uM incubated for 4 days
Assay type: toxicity, cell-based
setup-conditions: human, 96 h, time 4 day
readout-type: Activity

chemical-smiles: C[C@@H](O)[C@H](NC(=O)[C@@H]1CCCN1C(=O)[C@H](CCCCN)NC(=O)[C@H](CO)NC(=O)[C@H](Cc1ccc(O)cc1)NC(=O)[C@H](CC(N)=O)NC(=O)CCCCCNC(=O)[C@@H](N)CS)C(=O)N[C@@H](CC(=O)O)C(=O)N[C@@H](CCCNC(=N)N)C(=O)N[C@@H](CCC(N)=O)C(=O)N[C@@H](Cc1ccc(O)cc1)C(=O)N[C@@H](Cc1cnc[nH]1)C(=O)N[C@@H](Cc1ccccc1)C(=O)O
readout-type: Activity
recorded-measurement: Non-toxic

chemical-smiles: COc1cc2c(cc1OC)-c1cc3ccc(OC)c(OCCN)c3c[n+]1CC2.[Cl-]
readout-type: Activity
recorded-measurement: Non-toxic

chemical-smiles: COc1cc2c(cc1OC)-c1cc3ccc(OC)c(OCCNC(=O)OCCSSC[C@H](N)C(=O)NCCCCCC(=O)N[C@@H](CC(N)=O)C(=O)N[C@@H](Cc4ccc(O)cc4)C(=O)N[C@@H](CO)C(=O)N[C@@H](CCCCN)C(=O)N4CCC[C@H]4C(=O)N[C@H](C(=O)N[C@@H](CC(=O)O)C(=O)N[C@@H](CCCNC(=N)N)C(=O)N[C@@H](CCC(N)=O)C(=O)N[C@@H](Cc4ccc(O)cc4)C(=O)N[C@@H](Cc4cnc[nH]4)C(=O)N[C@@H](Cc4ccccc4)C(=O)O)[C@@H](C)O)c3c[n+]1CC2.[Cl-]
readout-type: Activity
recorded-measurement: Non-toxic

chemical-smiles: COc1cc2c(cc1OC)-c1cc3ccc(OC)c(OCCNC(=O)OCc4ccc(SSC[C@H](N)C(=O)NCCCCCC(=O)N[C@@H](CC(N)=O)C(=O)N[C@@H](Cc5ccc(O)cc5)C(=O)N[C@@H](CO)C(=O)N[C@@H](CCCCN)C(=O)N5CCC[C@H]5C(=O)N[C@H](C(=O)N[C@@H](CC(=O)O)C(=O)N[C@@H](CCCNC(=N)N)C(=O)N[C@@H](CCC(N)=O)C(=O)N[C@@H](Cc5ccc(O)cc5)C(=O)N[C@@H](Cc5cnc[nH]5)C(=O)N[C@@H](Cc5ccccc5)C(=O)O)[C@@H](C)O)cc4)c3c[n+]1CC2.[Cl-]
readout-type: Activity
recorded-measurement: Toxic
